Catalogue of melting point readings, one per entry.

Consider the worked cases shown below.
{"COMPOUND": "COc1cc2c(cc1CN[C@H]1CCCN[C@H]1c1ccccc1)CCC(=S)N2C.Cl.Cl", "melting point": "219 to 221 °C"}
{"COMPOUND": "CN1C(=O)CCc2cc(OC(F)F)c(CN[C@H]3CCCN[C@H]3c3ccccc3)cc21.Cl.Cl", "melting point": "238 to 240 °C"}
{"COMPOUND": "COc1cc2c(cc1CN[C@H]1CCCN[C@H]1c1ccccc1)N(C)C(=O)CC2.Cl.Cl [Compound 21]", "melting point": "265 to 268 °C"}
{"COMPOUND": "COc1cc2c(cc1CN[C@H]1CCCN[C@H]1c1ccccc1)N(C)C(=O)SC2.Cl.Cl", "melting point": "252 to 254 °C"}
{"COMPOUND": "COc1cc2c(cc1CN[C@H]1C3CCN(CC3)[C@H]1C(c1ccccc1)c1ccccc1)N(C)C(=O)CC2", "melting point": "136 to 139 °C"}

The reported value for COc1cc2c(cc1CN[C@H]1CCCN[C@H]1c1ccccc1)C(C)(C)C(=S)N2C.Cl.Cl in terms of melting point is 234 to 236 °C

Consider COc1cc2c(cc1CN[C@H]1CCCN[C@H]1c1ccccc1)C(C(F)(F)F)CC(=O)N2C.Cl.Cl (some centres unmarked) . Its measured melting point is 225 to 256 °C

Entry CN1C(=O)CCc2cc(OCC(F)(F)F)c(CN[C@H]3CCCN[C@H]3c3ccccc3)cc21.Cl.Cl — recorded melting point = 239 to 240 °C

----------
TARGET OR TEST SYSTEM: substance P receptor sites in human IM-9 cells (Homo sapiens)
Construct: endogenous in cells
Sequence (P25103 whole entry): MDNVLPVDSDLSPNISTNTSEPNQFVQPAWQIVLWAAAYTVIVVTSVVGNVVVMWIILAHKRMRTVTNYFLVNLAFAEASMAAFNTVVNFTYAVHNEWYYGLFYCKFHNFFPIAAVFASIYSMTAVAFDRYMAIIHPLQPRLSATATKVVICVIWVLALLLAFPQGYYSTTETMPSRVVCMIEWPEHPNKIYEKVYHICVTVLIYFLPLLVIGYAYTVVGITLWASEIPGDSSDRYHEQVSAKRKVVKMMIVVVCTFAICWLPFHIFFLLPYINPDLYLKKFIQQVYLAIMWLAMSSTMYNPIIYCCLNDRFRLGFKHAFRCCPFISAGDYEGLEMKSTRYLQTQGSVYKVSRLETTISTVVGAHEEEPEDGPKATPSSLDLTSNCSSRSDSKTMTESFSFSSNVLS
PROTOCOL SUMMARY: IM-9 binding assay (inhibition of [^3H]SP binding)
MEASUREMENT CONDITIONS: [^3H]SP binding to human IM-9 cells
pIC50: −log10 of the molar value.
READOUT NAME: pIC50

Query COc1cc2c(cc1CN[C@H]1CCCN[C@H]1c1ccccc1)N(C)C(=O)CC2.Cl.Cl [Compound 21, dihydrochloride] yields pIC50 of > 10.00

----------
Entries and their measured melting point follow.

Examples with answers:
{"SMILES STRING": "COc1cc2ccc(=O)n(C)c2cc1CN[C@H]1CCCN[C@H]1c1ccccc1.Cl.Cl", "melting point": "260 to 263 °C"}
{"SMILES STRING": "COc1cc2ccc(=O)n(C)c2cc1CN[C@H]1C2CCN(CC2)[C@H]1C(c1ccccc1)c1ccccc1", "melting point": "125 to 128 °C"}
{"SMILES STRING": "COc1cc2c(cc1CN[C@H]1CCCN[C@H]1c1ccccc1)N(C)C(=S)CC2.Cl.Cl", "melting point": "245 to 246 °C"}
{"SMILES STRING": "COc1cc2c(cc1CN[C@H]1CCCN[C@H]1c1ccccc1)CCC(=O)N2C.Cl.Cl", "melting point": "243 to 244 °C"}
{"SMILES STRING": "COc1cc2c(cc1CN[C@H]1CCCN[C@H]1c1ccccc1)N(C(C)C)C(=O)CC2.Cl.Cl", "melting point": "257 to 260 °C"}
{"SMILES STRING": "COc1cc2c(cc1CN[C@H]1CCCN[C@H]1c1ccccc1)N(C)C(=O)CCC2.Cl.Cl", "melting point": "236 to 238 °C"}

response.value for COc1cc2c(cc1CN[C@H]1CCCN[C@H]1c1ccccc1)N(C)C(=O)OC2.Cl.Cl (field: melting point) = 235 to 237 °C

Where do these numbers come from? They come from patent US20020052503A1.
